system: A549 cells; assay: Drug combination study with paclitaxel (Chou-Talalay combination index); settings: combination index, paclitaxel held at IC10, A549 cells;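 also: combination indexes averaged only over points where fraction affected exceeded 0.2, with each synergy experiment repeated at least three times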
Entries annotated with measured plus paclitaxel, median CI
The answer should be written as a number, with no unit following it.

Reference set (4 entries):
COc1cc2c(c(OC)c1OC)-c1ccc(OC)c(=O)cc1[C@@H](NC(=O)CN(OC)[C@H]1C[C@@H](O)[C@H](O)[C@@H](CO)O1)CC2 [Col16, 2-deoxy-D-glucoside] | 0.11
COc1cc2c(c(OC)c1OC)-c1ccc(OC)c(=O)cc1[C@@H](NC(C)=O)CC2 [colchicine, reference compound] | 0.18
COc1cc2c(c(OC)c1OC)-c1ccc(OC)c(=O)cc1[C@@H](NC(=O)CN(OC)[C@@H]1O[C@H](CO)[C@@H](O)[C@H](O)[C@H]1F)CC2 [Col34, 2-fluoro-2-deoxy-D-glucoside] | 0.12
COc1cc2c(c(OC)c1OC)-c1ccc(OC)c(=O)cc1[C@@H](N)CC2 [Col 6, deacetyl colchicine] | 0.20

We next turn to a different compound, shown below.
-- ask Consider the compound CONCC(=O)N[C@H]1CCc2cc(OC)c(OC)c(OC)c2-c2ccc(OC)c(=O)cc21 [Col 8, 19-N-methoxyamino-colchicine] . State its measured plus paclitaxel, median CI.
-- reply 0.57

###

test system: SK-OV-3; test: Cytotoxicity assay (cell titer-glo and calcein AM), SK-OV-3; details: read-out: Cytotoxicity IC50, SK-OV-3, CTG; SK-OV-3; CTG (cell titer-glo) readout; % error in parentheses
QUANTITY NAME: IC50

COc1cc2c(c(OC)c1OC)-c1ccc(OC)c(=O)cc1[C@@H](NC(=O)CN(OC)[C@@H]1O[C@H](CO)[C@@H](O[C@H]3O[C@H](CO)[C@@H](O[C@H]4O[C@H](CO)[C@@H](O)[C@H](O)[C@H]4O)[C@H](O)[C@H]3O)[C@H](O)[C@H]1O)CC2 [Col13, maltotrioside] | > 10000 nM
COc1cc2c(c(OC)c1OC)-c1ccc(OC)c(=O)cc1[C@@H](NC(=O)CN(OC)[C@@H]1OC[C@@H](O)[C@H](O)[C@H]1O)CC2 [Col4, D-xyloside] | > 10000 nM

-- ask Consider the compound COc1cc2c(c(OC)c1OC)-c1ccc(OC)c(=O)cc1[C@@H](NC(=O)CN(OC)[C@@H]1O[C@H](CO)[C@@H](O)[C@H](O)[C@H]1F)CC2 [Col34, 2-fluoro-2-deoxy-D-glucoside] . State its measured IC50.
-- reply 325 nM

-- ask Consider the compound COc1cc2c(c(OC)c1OC)-c1ccc(OC)c(=O)cc1[C@@H](NC(=O)CN(OC)[C@@H]1O[C@H](CO)[C@@H](O)[C@H](F)[C@H]1O)CC2 [Col33, 3-fluoro-3-deoxy-D-glucoside] . State its measured IC50.
-- reply 1250 nM

-- ask Consider the compound COc1cc2c(c(OC)c1OC)-c1ccc(OC)c(=O)cc1C(NC(=O)CN(OC)C1OCC(O)C(O)C1O)CC2 [Col20, D-arabinoside] . State its measured IC50.
-- reply > 10000 nM

###

test system: mouse mammary normal epithelial control cell line; experiment: Cytotoxicity assay, normal control cell line; conditions: read-out: Cytotoxicity IC50, NmuMG, calcein, calcein AM readout, % error in parentheses
Entries annotated with measured IC50
Report the figure in nM without appending any unit label.

COc1cc2c(c(OC)c1OC)-c1ccc(OC)c(=O)cc1[C@@H](NC(=O)CN(OC)[C@@H]1O[C@H](CO)[C@@H](O[C@H]3O[C@H](CO)[C@@H](O)[C@H](O)[C@H]3O)[C@H](O)[C@H]1O)CC2 [Col38, D-maltoside] | 875

-- ask Consider the compound COc1cc2c(c(OC)c1OC)-c1ccc(OC)c(=O)cc1[C@@H](NC(=O)CN(OC)[C@@H]1O[C@H](CO)[C@@H](O)[C@H](O)[C@H]1F)CC2 [Col34, 2-fluoro-2-deoxy-D-glucoside] . State its measured IC50.
-- reply 760
